Entry source: patent US20240382465A1

experiment: Pharmacokinetic assay in mice; assay type: in vivo; settings: male, mouse, plasma; ICR mice, 15 mg/kg, IV; read-out: Clearance CL
Measurement kind: clearance (mL/min/kg)
Expressed in mL/min/kg, but write only the number.

**Query** Recorded clearance of "C[C@H](O)c1nccn1Cc1cc(-c2ccc(C#Cc3ccc(CN4CC(CC(=O)O)C4)cc3)cc2)on1" , please.
**Result** 12.3

**Query** Recorded clearance of "C[C@H](O)c1nccn1Cc1cc(-c2ccc(C#Cc3ccc(CN4CCC(C(=O)O)CC4)cc3)cc2)on1" , please.
**Result** 11.1

----------
molecular target: recombinant Pseudomonas aeruginosa LpxC (Pseudomonas aeruginosa (strain ATCC 15692 / DSM 22644 / CIP 104116 / JCM 14847 / LMG 12228 / 1C / PRS 101 / PAO1), UniProt P47205); assay: Inhibition of LpxC enzymatic activity (fluorescamine assay); type: biochemical; conditions: recombinant P. aeruginosa LpxC 5 nM, substrate 10 μM, 25° C., 120 minutes; read-out: IC50
Measurement kind: IC50 (nM)
Expressed in nM, but write only the number.

C[C@H](O)c1nccn1Cc1cc(-c2ccc(C#Cc3ccc(OC4CCN(C)CC4)cc3)cc2)on1 [Example 44] = 18.6

**Query** Recorded IC50 of C[C@H](O)c1nccn1Cc1cc(-c2ccc(C#Cc3ccc(CN4CC(C(=O)O)C4)nc3)cc2)on1 [Example 117] , please.
**Result** 18.5

**Query** Recorded IC50 of C[C@H](O)c1nccn1Cc1cc(-c2ccc(C#Cc3ccc(CN4CC(CC(=O)O)C4)nc3)cc2)on1 [Example 115] , please.
**Result** 24.5

**Query** Recorded IC50 of C[C@H](O)c1nccn1Cc1cc(-c2ccc(C#Cc3cccc(CCC(=O)O)c3)cc2)on1 [Example 109] , please.
**Result** 23.4

**Query** Recorded IC50 of C[C@H](O)c1nccn1Cc1cc(-c2ccc(C#Cc3ccc(C#N)nc3)cc2)on1 [Example 120] , please.
**Result** 77.1

**Query** Recorded IC50 of C[C@H](O)c1nccn1Cc1cc(-c2ccc(C#Cc3ccc(N4CCOCC4)cc3)cc2)on1 [Example 5] , please.
**Result** 72.3

**Query** Recorded IC50 of CCOC(=O)CC1CN(Cc2ccc(C#Cc3ccc(-c4cc(Cn5ccnc5[C@H](C)O)no4)cc3)cc2)C1 [Example 111] , please.
**Result** 8.59
